# protocolText: in vitro
# conditionParameters: rat, gh3-tre-luc cells, AC50 (uM) modified / 1000, Tox21_110001=Tox21_111947; viability, 1 nM T3 present, 24 h

{"molecule": "CC(C)(C)OC(=O)c1ncn2c1[C@@H]1CCCN1C(=O)c1c(Br)cccc1-2 [Bretazenil]", "CC50 at 24 h": "> 50 µM"}

* * *

# System: thyroid hormone receptor (endogenous TRα and TRβ)
# protocolText: GH3-TRE-Ag primary qHTS, luciferase reporter, agonist mode (TOX21_TR_LUC_GH3_Agonist, aeid 803)
# Assay type: cell-based, rat
Items are presented alongside their recorded EMax (% of Control) gh3-tre-agonist.

{"compound": "CC(C)(c1ccccc1)c1ccc(O)c(C(C)(C)c2ccccc2)c1 [2,4-Bis(1-methyl-1-phenylethyl)phenol]", "EMax (% of Control) gh3-tre-agonist": "22.3 % of Control"}
{"compound": "O=C(O)Cc1cc(I)c(Oc2cc(I)c(O)c(I)c2)c(I)c1 [Tetrac, 3,3ʹ,5,5ʹ-tetraiodothyroacetic acid]", "EMax (% of Control) gh3-tre-agonist": "113.5 % of Control"}
{"compound": "Cl.NC(CO)(CO)CO [Tromethamine hydrochloride]", "EMax (% of Control) gh3-tre-agonist": "65.8 % of Control"}
{"compound": "CSCC[C@H](NC(=O)[C@H](Cc1ccc(OS(=O)(=O)O)cc1)NC(=O)[C@@H](N)CC(=O)O)C(=O)NCC(=O)N[C@@H](Cc1c[nH]c2ccccc12)C(=O)N[C@@H](CCSC)C(=O)N[C@@H](CC(=O)O)C(=O)N[C@@H](Cc1ccccc1)C(N)=O [Sincalide, reference compound]", "EMax (% of Control) gh3-tre-agonist": "80.1 % of Control"}
{"compound": "Cc1ccc(O)cc1 [Cresol]", "EMax (% of Control) gh3-tre-agonist": "51.4 % of Control"}
{"compound": "O=c1[nH]cnc2c1ncn2[C@H]1CC[C@@H](CO)O1 [2',3'-Dideoxyinosine]", "EMax (% of Control) gh3-tre-agonist": "1.6 % of Control"}
{"compound": "O=C(Cl)OCCOCCOC(=O)Cl [Diethlylene glycol bis chloroformate]", "EMax (% of Control) gh3-tre-agonist": "19.2 % of Control"}
{"compound": "N[C@@H](Cc1cc(I)c(Oc2ccc(O)c(I)c2)c(I)c1)C(=O)O [3,5,3ʹ-Triiodothyronine, reference compound]", "EMax (% of Control) gh3-tre-agonist": "121.6 % of Control"}
{"compound": "N[C@@H](Cc1cc(I)c(Oc2cc(I)c(O)c(I)c2)c(I)c1)C(=O)O [Levothyroxine, reference compound]", "EMax (% of Control) gh3-tre-agonist": "117.2 % of Control"}
{"compound": "N[C@@H](Cc1ccc(Oc2cc(I)c(O)c(I)c2)c(I)c1)C(=O)O [3,3',5'-Triiodo-L-thyronine]", "EMax (% of Control) gh3-tre-agonist": "111.6 % of Control"}
{"compound": "Cc1cc(NC(=O)C(=O)O)cc(C)c1Oc1ccc(O)c2c1CCC2 [CP-634384, reference compound]", "EMax (% of Control) gh3-tre-agonist": "129.5 % of Control"}
{"compound": "CC1=C(/C=C/C(C)=C\\C=C\\C(C)=C\\C(=O)O)C(C)(C)CCC1 [9-cis Retinoic acid, reference compound]", "EMax (% of Control) gh3-tre-agonist": "31.8 % of Control"}
{"compound": "CC1(C)COP(Oc2ccccc2)OC1", "EMax (% of Control) gh3-tre-agonist": "30.2 % of Control"}

* * *

# protocolText: in vitro
# conditionParameters: rat, gh3-tre-luc cells, AC50 (uM) modified / 1000, Tox21_110001=Tox21_112772; viability, 1 nM T3 present, 24 h
propertyName: CC50 at 24 h

{"lineNotation": "C[C@]12Cc3nonc3C[C@@H]1CC[C@@H]1[C@@H]2CC[C@@]2(C)[C@H]1CC[C@]2(C)O", "propertyName": "CC50 at 24 h", "reportedValue": "25.2 µM"}

* * *

# protocolText: in vitro
# conditionParameters: rat, gh3-tre-luc cells, AC50 (uM) modified / 1000, Tox21_110001=Tox21_202947; viability, 1 nM T3 present, 24 h
propertyName: CC50 at 24 h

{"compound": "O=C1C(=O)c2cccc3cccc1c23 [Acenaphthenequinone]", "reportedValue": "> 90 µM"}

* * *

Items are presented alongside their recorded CC50 at 24 h.
# protocolText: in vitro
# conditionParameters: rat, gh3-tre-luc cells, AC50 (uM) modified / 1000
Where a name gives a salt, the structure may show the parent alone.
propertyName: CC50 at 24 h

{"compound": "CN1[C@@H]2CC[C@H]1CC(OC(c1ccccc1)c1ccccc1)C2 (some centres unmarked) [Benztropine methylsulfonate]", "propertyName": "CC50 at 24 h", "reportedValue": "20.1 µM"}
{"compound": "CCCCCCCCOCCC#N", "propertyName": "CC50 at 24 h", "reportedValue": "> 90 µM"}
{"compound": "OCC(CO)N[C@H]1C[C@](O)(CO)[C@@H](O)[C@H](O)[C@H]1O", "propertyName": "CC50 at 24 h", "reportedValue": "> 50 µM"}
{"compound": "Nc1cc([N+](=O)[O-])ccc1C(=O)O", "propertyName": "CC50 at 24 h", "reportedValue": "> 90 µM"}
{"compound": "O=C(O)c1ccc(Cl)c(Cl)c1", "propertyName": "CC50 at 24 h", "reportedValue": "> 90 µM"}
{"compound": "Clc1ccccc1-c1nnc(-c2ccccc2Cl)nn1", "propertyName": "CC50 at 24 h", "reportedValue": "> 90 µM"}
{"compound": "CCOc1ccc(O)cc1", "propertyName": "CC50 at 24 h", "reportedValue": "> 90 µM"}
{"compound": "Cc1cc(C)cc([N+](=O)[O-])c1", "propertyName": "CC50 at 24 h", "reportedValue": "> 90 µM"}
{"compound": "CCc1ccccc1O", "propertyName": "CC50 at 24 h", "reportedValue": "> 90 µM"}
{"compound": "CCN(CC)CCC(=O)N1c2ccccc2Sc2ccc(Cl)cc21", "propertyName": "CC50 at 24 h", "reportedValue": "23.2 µM"}
{"compound": "O=Cc1c(Cl)cccc1Cl", "propertyName": "CC50 at 24 h", "reportedValue": "> 90 µM"}
{"compound": "CO/N=C(\\C(=O)N[C@@H]1C(=O)N2C(C(=O)O)=C(Cn3ccc(=N)n3CCO)CS[C@H]12)c1csc(N)n1 [Cefoselis sulfate]", "propertyName": "CC50 at 24 h", "reportedValue": "> 50 µM"}
{"compound": "CC1(C)O[C@@H]2C[C@H]3[C@@H]4CCC5=CC(=O)C=C[C@]5(C)[C@@]4(F)[C@@H](O)C[C@]3(C)[C@]2(C(=O)CO)O1 [Triamcinolone acetonide]", "propertyName": "CC50 at 24 h", "reportedValue": "> 90 µM"}
{"compound": "Cc1ccc(S(=O)(=O)NCl)cc1 [Chloramine T hydrate (1:x)]", "propertyName": "CC50 at 24 h", "reportedValue": "> 80 µM"}
{"compound": "Nc1cc(S(=O)(=O)O)cc2cc(S(=O)(=O)O)cc(O)c12", "propertyName": "CC50 at 24 h", "reportedValue": "> 90 µM"}
{"compound": "Nc1nc(=O)[nH]cc1F", "propertyName": "CC50 at 24 h", "reportedValue": "> 20 µM"}
{"compound": "COc1cccc2sc(N)nc12", "propertyName": "CC50 at 24 h", "reportedValue": "> 90 µM"}
{"compound": "CCCCCCCCCCCCCCC1CO1 (centres unmarked)", "propertyName": "CC50 at 24 h", "reportedValue": "> 90 µM"}
{"compound": "COc1cc(C)ccc1O", "propertyName": "CC50 at 24 h", "reportedValue": "> 90 µM"}
{"compound": "CN(C)CCCNCCC#N", "propertyName": "CC50 at 24 h", "reportedValue": "> 90 µM"}

* * *

# protocolText: in vitro
# conditionParameters: rat, gh3-tre-luc cells, AC50 (uM) modified / 1000
Where a name gives a salt, the structure may show the parent alone.
Items are presented alongside their recorded CC50 at 24 h.

{"molecule": "Cc1nc2n(c(=O)c1CCN1CCC(c3noc4cc(F)ccc34)CC1)CCCC2 [Risperidone]", "CC50 at 24 h": "> 50 µM"}
{"molecule": "COc1ccc(C2NC(=S)N3C(c4ccc(OC)c(OC)c4)NC(=S)N23)cc1OC (centres unmarked)", "CC50 at 24 h": "0.208 µM"}
{"molecule": "CC12CCC(C[N+](C)(CCC[N+](C)(C)C)C1)C2(C)C (centres unmarked) [Trimethidinium methyl sulfate]", "CC50 at 24 h": "> 50 µM"}
{"molecule": "CC1(C)[C@@H]2CC[C@@]1(C)C(=O)C2 [D-Camphor]", "CC50 at 24 h": "> 90 µM"}
{"molecule": "O=[N+]([O-])c1nccn1CO[C@@H](CO)[C@H](O)CO [Doranidazole]", "CC50 at 24 h": "> 50 µM"}

Ref: paper PMC6792352
